Each recorded value in this set is attributed to patent US7939558B2.

- target_desc: ΔF508-CFTR (Homo sapiens, UniProt P13569, DEL508-508)
- Sequence (P13569 with tags, fused parts or gaps DEL508-508): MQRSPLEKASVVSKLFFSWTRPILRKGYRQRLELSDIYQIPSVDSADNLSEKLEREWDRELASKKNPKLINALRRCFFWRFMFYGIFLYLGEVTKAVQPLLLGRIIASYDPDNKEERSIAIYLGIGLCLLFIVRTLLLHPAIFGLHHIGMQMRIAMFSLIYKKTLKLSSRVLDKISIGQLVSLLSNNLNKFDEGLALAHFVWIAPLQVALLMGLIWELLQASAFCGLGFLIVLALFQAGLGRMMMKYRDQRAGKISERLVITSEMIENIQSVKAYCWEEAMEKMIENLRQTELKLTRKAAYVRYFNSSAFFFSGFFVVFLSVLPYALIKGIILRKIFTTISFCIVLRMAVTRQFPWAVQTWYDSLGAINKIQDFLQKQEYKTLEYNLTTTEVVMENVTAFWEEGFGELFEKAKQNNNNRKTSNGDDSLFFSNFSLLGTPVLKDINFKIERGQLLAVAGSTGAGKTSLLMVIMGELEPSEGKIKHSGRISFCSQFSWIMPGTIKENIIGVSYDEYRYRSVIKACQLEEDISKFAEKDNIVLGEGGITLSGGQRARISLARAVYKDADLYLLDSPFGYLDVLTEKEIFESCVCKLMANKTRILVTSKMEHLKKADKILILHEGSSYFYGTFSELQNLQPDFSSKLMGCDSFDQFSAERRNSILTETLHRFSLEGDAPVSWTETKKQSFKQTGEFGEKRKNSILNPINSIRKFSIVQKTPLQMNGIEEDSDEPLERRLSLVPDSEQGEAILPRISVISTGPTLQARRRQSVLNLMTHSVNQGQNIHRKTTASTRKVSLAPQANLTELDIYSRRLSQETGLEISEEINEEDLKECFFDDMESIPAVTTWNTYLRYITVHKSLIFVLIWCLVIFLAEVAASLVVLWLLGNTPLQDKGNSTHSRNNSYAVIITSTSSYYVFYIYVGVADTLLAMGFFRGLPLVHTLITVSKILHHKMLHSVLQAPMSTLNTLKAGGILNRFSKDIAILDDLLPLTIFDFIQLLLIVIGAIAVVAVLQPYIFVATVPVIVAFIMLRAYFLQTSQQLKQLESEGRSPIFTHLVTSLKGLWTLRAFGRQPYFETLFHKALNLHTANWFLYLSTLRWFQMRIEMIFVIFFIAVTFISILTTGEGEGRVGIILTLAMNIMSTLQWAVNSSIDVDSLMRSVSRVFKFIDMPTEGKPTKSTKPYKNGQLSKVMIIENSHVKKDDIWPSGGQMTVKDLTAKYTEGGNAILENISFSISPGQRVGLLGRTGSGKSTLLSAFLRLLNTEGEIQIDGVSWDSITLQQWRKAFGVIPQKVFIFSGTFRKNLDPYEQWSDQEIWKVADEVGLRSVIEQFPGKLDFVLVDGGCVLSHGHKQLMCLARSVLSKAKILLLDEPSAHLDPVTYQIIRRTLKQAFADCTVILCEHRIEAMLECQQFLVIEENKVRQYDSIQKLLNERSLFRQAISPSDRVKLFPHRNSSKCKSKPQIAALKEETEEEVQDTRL
- run_description: Fluorescence (YFP-H148Q/I152L) I− influx assay of ΔF508-CFTR potentiator activity in FRT cells
- Format: cell-based
- Parameters: expressed in transfected cells
- test_parameters: sulfonamide containing compounds, 27° C. 24 h, forskolin 20 μM, read-out: Ka
result_type: EC50 (nM)

compound="CCN(c1ccc(F)cc1)S(=O)(=O)c1ccc2[nH]cc(C(=O)NCC3CCCO3)c(=O)c2c1 (stereo not drawn) [Compound S-30]" target_desc="ΔF508-CFTR (Homo sapiens, UniProt P13569, DEL508-508)" reported_result=540
compound="CCC(C)NC(=O)c1c[nH]c2ccc(S(=O)(=O)N(C)c3cccc(C)c3)cc2c1=O (stereo not drawn) [Compound S-25]" target_desc="ΔF508-CFTR (Homo sapiens, UniProt P13569, DEL508-508)" reported_result=440
compound="CCN(c1ccccc1)S(=O)(=O)c1ccc2[nH]cc(C(=O)NCc3ccco3)c(=O)c2c1 [Compound S-27]" target_desc="ΔF508-CFTR (Homo sapiens, UniProt P13569, DEL508-508)" reported_result=460
compound="CCN(c1ccccc1)S(=O)(=O)c1ccc2[nH]cc(C(=O)NCc3ccccc3OC)c(=O)c2c1 [Compound S-3]" target_desc="ΔF508-CFTR (Homo sapiens, UniProt P13569, DEL508-508)" reported_result=30
compound="CN(c1ccc(Cl)cc1F)S(=O)(=O)c1ccc2[nH]cc(C(=O)NCC3CCCO3)c(=O)c2c1 (stereo not drawn) [Compound S-38]" target_desc="ΔF508-CFTR (Homo sapiens, UniProt P13569, DEL508-508)" reported_result=660
compound="CCOC(CNC(=O)c1c[nH]c2ccc(S(=O)(=O)N(C)c3ccccc3CC)cc2c1=O)OCC [Compound S-58]" target_desc="ΔF508-CFTR (Homo sapiens, UniProt P13569, DEL508-508)" reported_result=1280
compound="Cc1ccc(C)c(N(C)S(=O)(=O)c2ccc3[nH]cc(C(=O)NCc4ccccn4)c(=O)c3c2)c1 [Compound S-8]" target_desc="ΔF508-CFTR (Homo sapiens, UniProt P13569, DEL508-508)" reported_result=130
compound="CCN(CC)S(=O)(=O)c1ccc2[nH]cc(C(=O)NCc3ccc(OC)cc3)c(=O)c2c1 [Compound S-39]" target_desc="ΔF508-CFTR (Homo sapiens, UniProt P13569, DEL508-508)" reported_result=660
compound="CCOCCCNC(=O)c1c[nH]c2ccc(S(=O)(=O)N(C)c3ccccc3C)cc2c1=O [Compound S-65]" target_desc="ΔF508-CFTR (Homo sapiens, UniProt P13569, DEL508-508)" reported_result=1660
compound="Cc1ccccc1N(C)S(=O)(=O)c1ccc2[nH]cc(C(=O)NCCC(C)C)c(=O)c2c1 [Compound S-47]" target_desc="ΔF508-CFTR (Homo sapiens, UniProt P13569, DEL508-508)" reported_result=870
compound="CCN(c1ccc(F)cc1)S(=O)(=O)c1ccc2[nH]cc(C(=O)NC3CCCC3)c(=O)c2c1 [Compound S-21]" target_desc="ΔF508-CFTR (Homo sapiens, UniProt P13569, DEL508-508)" reported_result=330
compound="CCCCNC(=O)c1c[nH]c2ccc(S(=O)(=O)N(CC)c3ccc(F)cc3)cc2c1=O [Compound S-64]" target_desc="ΔF508-CFTR (Homo sapiens, UniProt P13569, DEL508-508)" reported_result=1560
compound="CCOc1ccccc1N(C)S(=O)(=O)c1ccc2[nH]cc(C(=O)NCC3CCCO3)c(=O)c2c1 (stereo not drawn) [Compound S-14]" target_desc="ΔF508-CFTR (Homo sapiens, UniProt P13569, DEL508-508)" reported_result=200
compound="CCN(c1ccc(F)cc1)S(=O)(=O)c1ccc2[nH]cc(C(=O)NCCCOC)c(=O)c2c1 [Compound S-50]" target_desc="ΔF508-CFTR (Homo sapiens, UniProt P13569, DEL508-508)" reported_result=1020
compound="C=CCN(c1ccccc1)S(=O)(=O)c1ccc2[nH]cc(C(=O)NCCCC)c(=O)c2c1 [Compound S-6]" target_desc="ΔF508-CFTR (Homo sapiens, UniProt P13569, DEL508-508)" reported_result=110
